# Assay method text: Aqueous solubility of the compound in PBS buffer at pH 7.4 incubated for 6 hrs by HPLC analysis
# Format: physicochemical
# Experimental context: pH 7.4, 6 h
Outcome measure: solubility (µg/mL)
Report only the number, with the unit µg/mL understood.

Endpoint output: solubility of CCc1ccccc1-n1nc(C)c(C(=O)Nc2ccc3ccccc3n2)c1C . Value?
5.2

Endpoint output: solubility of Cc1nn(-c2ccccc2Br)c(C)c1C(=O)Nc1ccc2ccccc2n1 . Value?
5.9

Endpoint output: solubility of Cc1ccccc1-n1nc(C)c(C(=O)Nc2ccc3ccccc3n2)c1C . Value?
6.7

Endpoint output: solubility of Cc1ccccc1-n1nnc(C(=O)Nc2ccc3ccccc3n2)c1C . Value?
0.11

Endpoint output: solubility of Cc1c(C(=O)Nc2ccc3ccccc3n2)cnn1-c1ccccc1Br . Value?
0.05
